# Test system: PANC-1 cells
# Assay: MTT cell viability assay, PANC-1 pancreatic ductal adenocarcinoma cell line
# Assay type: cell-based, human
# Settings: PANC-1, 72 hours post-treatment, FIG. 11
Measured quantity: cytotoxicity (cell viability, % vs vehicle)

[
  {
    "Molecule": "CCCCCc1cc(O)c2c(c1)OC(C)(C)c1ccc(C)cc1-2",
    "Endpoint result": "induced cytotoxicity"
  },
  {
    "Molecule": "CCCCCc1cc(O)c2c(c1)OC(C)(C)[C@@H]1CCC(C)=C[C@@H]21 [THC, reference compound]",
    "Endpoint result": "induced cytotoxicity"
  },
  {
    "Molecule": "C=C(C)[C@@H]1CCC(C)=C[C@H]1c1c(O)cc(CCC)cc1O",
    "Endpoint result": "induced cytotoxicity"
  },
  {
    "Molecule": "CCCCCc1cc(O)c(C/C=C(\\C)CCC=C(C)C)c(O)c1",
    "Endpoint result": "induced cytotoxicity"
  },
  {
    "Molecule": "CCCCCc1cc(O)c2c(c1)OC(C)(CCC=C(C)C)C=C2 (centres unmarked)",
    "Endpoint result": "induced cytotoxicity"
  }
]
